A short record of pIC50 observed with UniProt:P12276 follows.
Sequence (P12276 whole entry): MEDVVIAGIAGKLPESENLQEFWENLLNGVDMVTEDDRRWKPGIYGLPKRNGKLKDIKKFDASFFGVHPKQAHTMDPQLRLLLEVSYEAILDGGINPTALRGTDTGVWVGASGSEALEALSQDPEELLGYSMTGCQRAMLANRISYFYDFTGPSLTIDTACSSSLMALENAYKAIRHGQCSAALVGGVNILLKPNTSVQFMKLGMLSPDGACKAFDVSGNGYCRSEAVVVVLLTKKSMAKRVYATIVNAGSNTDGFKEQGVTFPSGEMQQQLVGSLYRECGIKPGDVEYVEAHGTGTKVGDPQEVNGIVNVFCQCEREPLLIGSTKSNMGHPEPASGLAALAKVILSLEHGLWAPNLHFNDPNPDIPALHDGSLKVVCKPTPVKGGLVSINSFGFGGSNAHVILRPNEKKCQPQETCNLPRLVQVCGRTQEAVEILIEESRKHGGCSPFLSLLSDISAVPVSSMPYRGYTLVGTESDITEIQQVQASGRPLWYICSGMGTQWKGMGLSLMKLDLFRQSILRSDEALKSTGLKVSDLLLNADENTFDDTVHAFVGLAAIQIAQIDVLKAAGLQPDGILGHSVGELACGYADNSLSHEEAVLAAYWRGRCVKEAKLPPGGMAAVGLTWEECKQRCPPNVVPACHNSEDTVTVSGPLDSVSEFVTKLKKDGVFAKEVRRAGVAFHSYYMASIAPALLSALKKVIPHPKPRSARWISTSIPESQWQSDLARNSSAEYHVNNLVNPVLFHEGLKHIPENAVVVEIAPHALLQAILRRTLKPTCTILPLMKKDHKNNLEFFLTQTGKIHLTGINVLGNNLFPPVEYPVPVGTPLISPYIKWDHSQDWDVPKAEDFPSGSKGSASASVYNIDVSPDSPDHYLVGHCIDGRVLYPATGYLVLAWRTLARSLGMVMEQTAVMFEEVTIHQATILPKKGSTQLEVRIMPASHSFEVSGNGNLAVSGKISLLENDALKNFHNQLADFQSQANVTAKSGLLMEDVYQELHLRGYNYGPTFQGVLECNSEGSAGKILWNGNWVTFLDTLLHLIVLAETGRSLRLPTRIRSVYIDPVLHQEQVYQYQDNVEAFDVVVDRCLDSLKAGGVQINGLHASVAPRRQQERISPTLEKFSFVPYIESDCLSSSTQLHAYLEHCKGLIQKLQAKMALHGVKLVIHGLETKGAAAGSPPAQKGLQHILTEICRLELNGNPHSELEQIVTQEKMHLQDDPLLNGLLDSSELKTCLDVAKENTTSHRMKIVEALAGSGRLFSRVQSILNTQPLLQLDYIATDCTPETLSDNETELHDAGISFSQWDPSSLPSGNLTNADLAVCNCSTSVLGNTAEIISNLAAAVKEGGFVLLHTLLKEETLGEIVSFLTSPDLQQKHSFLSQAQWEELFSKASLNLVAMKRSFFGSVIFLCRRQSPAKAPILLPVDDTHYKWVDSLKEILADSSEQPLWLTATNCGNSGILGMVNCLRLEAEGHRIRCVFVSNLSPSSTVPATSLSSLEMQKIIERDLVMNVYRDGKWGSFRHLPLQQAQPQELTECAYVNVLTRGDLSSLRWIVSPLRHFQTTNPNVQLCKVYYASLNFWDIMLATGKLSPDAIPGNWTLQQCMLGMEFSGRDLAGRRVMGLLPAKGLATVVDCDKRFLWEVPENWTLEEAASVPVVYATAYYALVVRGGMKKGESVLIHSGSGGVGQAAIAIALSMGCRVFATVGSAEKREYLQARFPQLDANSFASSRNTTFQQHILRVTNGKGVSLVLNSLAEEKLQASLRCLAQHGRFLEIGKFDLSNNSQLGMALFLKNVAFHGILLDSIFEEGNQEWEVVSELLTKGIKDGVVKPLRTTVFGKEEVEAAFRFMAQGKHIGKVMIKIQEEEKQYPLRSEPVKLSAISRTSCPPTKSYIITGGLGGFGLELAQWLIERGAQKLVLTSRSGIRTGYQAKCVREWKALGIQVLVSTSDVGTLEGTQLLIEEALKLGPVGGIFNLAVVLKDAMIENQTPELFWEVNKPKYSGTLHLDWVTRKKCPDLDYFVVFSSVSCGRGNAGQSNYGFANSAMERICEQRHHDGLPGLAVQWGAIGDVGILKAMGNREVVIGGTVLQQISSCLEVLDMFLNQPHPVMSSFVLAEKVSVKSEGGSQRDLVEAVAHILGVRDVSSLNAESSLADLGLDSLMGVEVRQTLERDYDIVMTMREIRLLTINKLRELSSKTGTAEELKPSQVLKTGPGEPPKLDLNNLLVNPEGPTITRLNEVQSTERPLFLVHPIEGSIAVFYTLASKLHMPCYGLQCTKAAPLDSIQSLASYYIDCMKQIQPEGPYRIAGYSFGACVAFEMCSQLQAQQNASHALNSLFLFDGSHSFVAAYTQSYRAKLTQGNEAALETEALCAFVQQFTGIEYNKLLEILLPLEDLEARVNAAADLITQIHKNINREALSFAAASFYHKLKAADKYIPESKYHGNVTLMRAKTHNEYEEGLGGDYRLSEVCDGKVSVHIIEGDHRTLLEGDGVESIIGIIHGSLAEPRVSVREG
Just so you know, pIC50 here is -log10 of the concentration in molar units; reply with that number alone.

Record excerpt, results attached:
>>> df
                                   molecule  reading
0   O=c1cc(-c2ccc(O)c(O)c2)oc2cc(O)cc(O)c12     4.20
1  CCCCCC/C=C\CCCCCCCc1cccc(O)c1C(=O)O [6-{8(Z)-pentadecenyl}salicylic acid]     4.77
2    C/C=C/C/C=C/CCC(=O)[C@H]1O[C@H]1C(N)=O     4.89

// returns pIC50 for CCCCCC/C=C\CCCCCCCCCc1cccc(O)c1C(=O)O [6-[10'(Z)-heptade-cenyljsalicylic acid] with UniProt:P12276; value = 4.98
